Target: T1, human CD11a (human) (UniProt P20701)
T1 sequence (looked up): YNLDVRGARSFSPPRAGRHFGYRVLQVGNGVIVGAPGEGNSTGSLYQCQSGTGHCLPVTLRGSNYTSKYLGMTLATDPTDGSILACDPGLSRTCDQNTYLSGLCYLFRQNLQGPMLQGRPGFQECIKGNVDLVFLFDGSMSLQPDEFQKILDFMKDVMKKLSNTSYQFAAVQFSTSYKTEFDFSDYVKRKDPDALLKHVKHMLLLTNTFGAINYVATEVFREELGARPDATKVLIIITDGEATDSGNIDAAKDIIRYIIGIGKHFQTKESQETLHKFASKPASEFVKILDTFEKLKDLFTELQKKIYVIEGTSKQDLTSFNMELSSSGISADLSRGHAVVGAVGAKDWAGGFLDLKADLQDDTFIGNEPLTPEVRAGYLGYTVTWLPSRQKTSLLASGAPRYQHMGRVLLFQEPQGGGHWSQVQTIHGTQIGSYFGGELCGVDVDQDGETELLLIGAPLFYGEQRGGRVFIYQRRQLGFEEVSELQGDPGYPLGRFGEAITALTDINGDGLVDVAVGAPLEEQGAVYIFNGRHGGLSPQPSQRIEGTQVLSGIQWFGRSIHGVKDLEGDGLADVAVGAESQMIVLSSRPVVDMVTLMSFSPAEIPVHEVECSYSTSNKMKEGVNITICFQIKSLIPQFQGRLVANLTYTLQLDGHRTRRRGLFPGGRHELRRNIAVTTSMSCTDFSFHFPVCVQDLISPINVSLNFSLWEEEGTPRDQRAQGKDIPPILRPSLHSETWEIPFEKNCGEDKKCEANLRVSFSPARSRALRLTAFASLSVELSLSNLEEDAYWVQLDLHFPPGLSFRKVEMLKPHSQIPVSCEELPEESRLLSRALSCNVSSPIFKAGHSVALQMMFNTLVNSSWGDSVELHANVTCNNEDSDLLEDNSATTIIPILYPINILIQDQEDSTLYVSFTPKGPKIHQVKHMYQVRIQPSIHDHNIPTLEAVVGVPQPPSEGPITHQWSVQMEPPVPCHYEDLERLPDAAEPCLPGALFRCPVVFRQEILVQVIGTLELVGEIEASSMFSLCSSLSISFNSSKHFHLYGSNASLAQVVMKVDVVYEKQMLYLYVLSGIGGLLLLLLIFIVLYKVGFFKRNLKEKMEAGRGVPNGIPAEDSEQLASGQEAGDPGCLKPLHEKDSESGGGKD
Test: FACScan, Jurkat cells
Assay readout: Variant EC50/HulgG1 EC50
Just the number, please, no unit attached.

Write down Variant EC50/HulgG1 EC50 measured for item AspH54Ala variant IgG1 (antibody, V domains shown) VH: EVQLVESGGGLVQPGGSLRLSCAASGYSFTGHWMNWVRQAPGKGLEWVGMIHPSASETRYNQKFKDRFTISVDKSKNTLYLQMNSLRAEDTAVYYCARGIYFYGTTYFDYWGQGTLVTVSS VL: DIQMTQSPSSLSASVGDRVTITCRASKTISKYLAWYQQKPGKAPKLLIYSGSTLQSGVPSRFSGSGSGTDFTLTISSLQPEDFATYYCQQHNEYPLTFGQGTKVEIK 147

Write down Variant EC50/HulgG1 EC50 measured for item AspH54Asn variant IgG1 (antibody, V domains shown) VH: EVQLVESGGGLVQPGGSLRLSCAASGYSFTGHWMNWVRQAPGKGLEWVGMIHPSNSETRYNQKFKDRFTISVDKSKNTLYLQMNSLRAEDTAVYYCARGIYFYGTTYFDYWGQGTLVTVSS VL: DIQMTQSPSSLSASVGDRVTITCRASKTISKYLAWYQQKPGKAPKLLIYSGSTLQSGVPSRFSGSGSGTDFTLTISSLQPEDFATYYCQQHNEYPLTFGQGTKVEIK 26

Write down Variant EC50/HulgG1 EC50 measured for item AspH54Gln variant IgG1 (antibody, V domains shown) VH: EVQLVESGGGLVQPGGSLRLSCAASGYSFTGHWMNWVRQAPGKGLEWVGMIHPSQSETRYNQKFKDRFTISVDKSKNTLYLQMNSLRAEDTAVYYCARGIYFYGTTYFDYWGQGTLVTVSS VL: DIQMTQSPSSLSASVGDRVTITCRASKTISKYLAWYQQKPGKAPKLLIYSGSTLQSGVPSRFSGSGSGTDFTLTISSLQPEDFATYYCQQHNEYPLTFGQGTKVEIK 20

Write down Variant EC50/HulgG1 EC50 measured for item AspH54Glu variant IgG1 (antibody, V domains shown) VH: EVQLVESGGGLVQPGGSLRLSCAASGYSFTGHWMNWVRQAPGKGLEWVGMIHPSESETRYNQKFKDRFTISVDKSKNTLYLQMNSLRAEDTAVYYCARGIYFYGTTYFDYWGQGTLVTVSS VL: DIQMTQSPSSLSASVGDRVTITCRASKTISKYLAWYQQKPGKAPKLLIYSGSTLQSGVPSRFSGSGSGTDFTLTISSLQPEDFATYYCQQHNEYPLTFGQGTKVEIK 16
